B1: HDV Ribozyme (parent)
chain: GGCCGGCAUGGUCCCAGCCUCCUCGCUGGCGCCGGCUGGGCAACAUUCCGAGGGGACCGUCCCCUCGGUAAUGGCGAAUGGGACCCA

# Variants of: B1
# assay_name: self-cleavage, relative activity (ratio to wild type); higher = more cleavage; co-transcriptional
parameter_measured: self-cleavage

| primary_sequence | quantitative_result |
| --- | --- |
| GGCCGGCAUGGUCCCAGCCUCCUCGCUAACGCCGGCUGGGCAACAUUCCGAGGGGACCGUCCCCUCGGUAAUGGCGAAUGGGACCCA [G28A G29A] | 0.0978 |
| GGCCAGCAUGGUCCCAGCCUCCUCGCUGGCGCCGGCUGGGCAACAUUCCGAGGGGACCGUCCCCUCGGUAAUGGCGAAUGGGAUCCA [G5A C84U] | 0.117 |
| GGCCGGCAUGGUCCCAGCCUCCUCGCUGGCGCCGGCUGGGAAACAUUCCGAAGGGACCGUCCCCUCGGUAAUGGCGAAUGGGACCCA [C41A G52A] | 0.901 |
| GGCCGGCAUGGUCCUAGGCUCCUCGCUGGCGCCGGCUGGGCAACAUUCCGAGGGGACCGUCCCCUCGGUAAUGGCGAAUGGGACCCA [C15U C18G] | 0.0594 |
| GGCCGGCAUAGUCCCAGCCUCCUCGCUGGCGCCGGCUGGGCAACAUUCCGAGGGGACCGUCCCUUCGGUAAUGGCGAAUGGGACCCA [G10A C64U] | 0.661 |
| GGCCGGCAUGGUCCCAGCCUCGUCGCUGGCGCCGGCUGGGCAACAUUCCGAGGGGACCGUCCCCUCGGUAAUGGCGAAUGGGACACA [C22G C85A] | 0 |
| GGCCGGCAUGGUCCAAGCCUCCUCGCUGGCGCCGGCUGGGCAACAUUCCGAGGGGACCGUCCCCUUGGUAAUGGCGAAUGGGACCCA [C15A C66U] | 0.909 |
| GGCCGGCAUGGUCCCAGCCCCCUCGCUGGCGCCGGCUGGGCAACAUUCCGAGGGGGCCGUCCCCUCGGUAAUGGCGAAUGGGACCCA [U20C A56G] | 0.101 |
| GGCCGGCAUGGUCCCAGCCUCCUCGCUGGCGCCGGCUGGGCAACAUUCCGAGGGGACCCUCCCCUCGGUAGUGGCGAAUGGGACCCA [G59C A71G] | 0.831 |
| GGCCGGCAUGGUCCCAGCCACCUCGCUGGCGCCGGCUGGGCAACAUUCCGAGGGGACCGUCCCCUCGGUAAUGGUGAAUGGGACCCA [U20A C75U] | 0.0489 |
| GGCCGGCAUGGUCCCAGCCUCCUCGCUGGCGCCGGCUGGGCAACAUUCCGAAGGGACCGUCCCCUCGGUAAUGGCGAAUGGGGCCCA [G52A A83G] | 0.85 |
| GGCCGGCAUGGUCCCAGCCUCCUCGCUGGCGCCGGCUGGGUAACAUUCCGAGGGGACCGUCCCCUCGGUAAUGGCGAAUGCGACCCA [C41U G81C] | 0.168 |
| GGCCGGCAUGGUCCCAGCCUCCUCGCUGGCGCCGGCUGGCCAACAUUCAGAGGGGACCGUCCCCUCGGUAAUGGCGAAUGGGACCCA [G40C C49A] | 0.381 |
| GGCCGGCAUGGUCCCAGCCUCCUGGCUGGCGCCGGCUGGGCAACAUUCCGAGGGGACCGUCCCCUCGCUAAUGGCGAAUGGGACCCA [C24G G68C] | 0.126 |
| GGCCGGCAUGGUCCCAGCCUCCUCGCUGGCGCCGGCUGGGCAACAUUCCGCGGUGACCGUCCCCUCGGUAAUGGCGAAUGGGACCCA [A51C G54U] | 0.659 |
| GGGCGGCAUGGUCCCAGCCUCCUCGCUGGCGCCGGCUGGGCAACAUUCCGAGGGGACCGUCCUCUCGGUAAUGGCGAAUGGGACCCA [C3G C63U] | 0.589 |
| GGCCGGCAUGGUCCCAGCCUCCUCGCUGACGCCGGCUGGGCAACAUUCCGAGGGGACCGUCCCCUCGGUAAUGGCGAAUGGGACUCA [G29A C85U] | 0.0978 |
| GGCCGGCAUGGUCCCAGCCUCCUCGCUGGCGCCGGCUGGACAACAUUCCGAGGGGACCGUCCCCUCGGUAAUGGCGAAAGGGACCCA [G40A U79A] | 0.513 |
| GGCCGGCAUGGUCCCAGCCUCCUCGCUGCCGCCCGCUGGGCAACAUUCCGAGGGGACCGUCCCCUCGGUAAUGGCGAAUGGGACCCA [G29C G34C] | 0.125 |
| GGCCGGCAUGGUCCCAGCCUCCUCGCUGGCCCCGGCUCGGCAACAUUCCGAGGGGACCGUCCCCUCGGUAAUGGCGAAUGGGACCCA [G31C G38C] | 0.135 |
| GGCCGGCAUGGUCCCAGCCUCCUCGCUGGUGCCGGCUGGGCAACAUUCCGAGGGUACCGUCCCCUCGGUAAUGGCGAAUGGGACCCA [C30U G55U] | 0.789 |
| GGCCGGCAUGGUCCCAGCCUCCUCGCUGGCGCCGGCUGGGCAACAAUCCGAGGGAACCGUCCCCUCGGUAAUGGCGAAUGGGACCCA [U46A G55A] | 0.716 |
